Source of measurements: patent US5227487A

- run description: Absorption spectra and extinction coefficients of rhodol dyes
- Assay type: physicochemical
- applied conditions: aqueous 50 mM phosphate buffer at pH 8.0-9.0
metric: Abs Max (nm)

[
  {
    "molecule": "O=C(O)c1ccc(C(=O)O)c(-c2c3cc(Cl)c(=O)cc-3oc3c4c5c(cc23)CCCN5CCC4)c1",
    "Abs Max (nm)": 547
  },
  {
    "molecule": "N#Cc1c2cc(CCC(=O)O)c(=O)cc-2oc2c3c4c(cc12)CCCN4CCC3",
    "Abs Max (nm)": 640
  },
  {
    "molecule": "O=C(O)CCCCc1cc2cc3cc4c5c(c3oc-2cc1=O)CCCN5CCC4",
    "Abs Max (nm)": 538
  },
  {
    "molecule": "C=CC(=O)NCCCCCNC(=O)CCc1cc2c(-c3ccccc3C(=O)O)c3cc4c5c(c3oc-2cc1=O)CCCN5CCC4",
    "Abs Max (nm)": 544
  },
  {
    "molecule": "O=C(CI)NCCCCCNC(=O)CCc1cc2c(-c3ccccc3C(=O)O)c3cc4c5c(c3oc-2cc1=O)CCCN5CCC4",
    "Abs Max (nm)": 544
  },
  {
    "molecule": "O=C(O)c1ccc(C(=O)O)c(-c2c3cc(Cl)c(=O)cc-3oc3cc4c(cc23)CCCN4)c1",
    "Abs Max (nm)": 524
  },
  {
    "molecule": "O=C(O)CCc1cc2cc3cc4c5c(c3oc-2cc1=O)CCCN5CCC4",
    "Abs Max (nm)": 538
  },
  {
    "molecule": "NNC(=O)CCc1cc2c(-c3ccccc3C(=O)O)c3cc4c5c(c3oc-2cc1=O)CCCN5CCC4",
    "Abs Max (nm)": 542
  },
  {
    "molecule": "O=C1OC2(c3ccc(O)cc3Oc3cc(O)ccc32)c2ccccc21",
    "Abs Max (nm)": 490
  },
  {
    "molecule": "O=C(O)CCc1cc2c(C(F)(F)F)c3cc4c5c(c3oc-2cc1=O)CCCN5CCC4",
    "Abs Max (nm)": 602
  },
  {
    "molecule": "NCCCCCNC(=O)CCc1cc2c(cc1O)Oc1c(cc3c4c1CCCN4CCC3)C21OC(=O)c2ccccc21 (centres unmarked)",
    "Abs Max (nm)": 543
  },
  {
    "molecule": "CCc1cc2c(C(=O)O)c3cc4c5c(c3oc-2cc1=O)CCCN5CCC4",
    "Abs Max (nm)": 558
  },
  {
    "molecule": "[N-]=[N+]=Nc1ccc(C(=O)NCCCCCNC(=O)CCc2cc3c(cc2O)Oc2c(cc4c5c2CCCN5CCC4)C32OC(=O)c3ccccc32)cc1 (centres unmarked)",
    "Abs Max (nm)": 545
  },
  {
    "molecule": "CCNc1cc2oc3cc(=O)c(CCC(=O)O)cc-3c(-c3ccccc3C(=O)O)c2cc1C",
    "Abs Max (nm)": 510
  },
  {
    "molecule": "CCCCCCCCCCCCCCCCc1cc2c(-c3cc(C(=O)O)ccc3C(=O)O)c3cc4c5c(c3oc-2cc1=O)CCCN5CCC4",
    "Abs Max (nm)": 547
  },
  {
    "molecule": "O=C(O)CCc1cc2c(cc1O)Oc1c(cc3c4c1CCCN4CCC3)C21OC(=O)c2ccccc21 (centres unmarked)",
    "Abs Max (nm)": 541
  },
  {
    "molecule": "O=C(CCc1cc2c(-c3ccccc3C(=O)O)c3cc4c5c(c3oc-2cc1=O)CCCN5CCC4)NCCCCCNC(=O)CN1C(=O)C=CC1=O",
    "Abs Max (nm)": 544
  }
]
